Molecular target: recombinant His-CHK1 (Homo sapiens, UniProt O14757)
Construct: His-CHK1, In House Lot P976, MW ˜30 KDa, stored at −80° C; fused on or other part: His tag
Sequence (O14757 1-265 limits assumed): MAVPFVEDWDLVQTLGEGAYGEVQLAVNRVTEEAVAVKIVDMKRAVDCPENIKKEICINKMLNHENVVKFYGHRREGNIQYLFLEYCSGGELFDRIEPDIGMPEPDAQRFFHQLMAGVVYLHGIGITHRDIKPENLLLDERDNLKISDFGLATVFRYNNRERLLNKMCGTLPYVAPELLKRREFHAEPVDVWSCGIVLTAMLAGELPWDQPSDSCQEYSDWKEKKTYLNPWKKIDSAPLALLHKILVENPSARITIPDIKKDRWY
Assay: CHK1 SPA Assay
Format: biochemical
Details: CDC25C biotinylated peptide substrate, 1 uM ATP, read-out: CHK1 IC50
Reported log10(IC50) values follow for various molecules
Short version: log10 scale, IC50, nM.

Cn1cc(-c2cnn3c(N)c(C(=O)Cc4ccccc4)c(C4CCCNC4)nc23)cn1 (centres unmarked) | 1.67
Cc1nc2c(Br)cnn2c(N)c1CC(N)=O | 3.68
C=C(C)c1c(C2CCCNC2)nc2c(-c3cnn(C)c3)cnn2c1N (centres unmarked) | 1.83

# get_value(readout='log10(IC50)', item= CC(=O)c1c(C2CCCNC2)nc2c(-c3cnn(C)c3)cnn2c1N (centres unmarked) ) 0.90

Same again, this time with CC(=NO)c1c(C2CCCNC2)nc2c(-c3cnn(C)c3)cnn2c1N (centres unmarked) 1.77

Same again, this time with CCc1c(N2CC[C@H](N)C2)nc2c(Br)cnn2c1N 2.93

Same again, this time with Cc1c(N2CC[C@H](N)C2)nc2c(Br)cnn2c1N 3.20

Same again, this time with CC(O)c1c(C2CCCNC2)nc2c(-c3cnn(C)c3)cnn2c1N (single isomer, unassigned) [drawing 212] 2.17

Same again, this time with Cc1nc2c(Br)cnn2c(N)c1CCO 4.46

Same again, this time with Nc1c(-c2ccccc2)c(N2CC[C@H](N)C2)nc2c(Br)cnn12 4.35

Same again, this time with CCC(=O)c1c(C2CCCNC2)nc2c(-c3cnn(C)c3)cnn2c1N (centres unmarked) 1.08
